# target_desc: Gal(b1-3)GalNAc(b1-3)Gal(a1-4)Gal(b1-4)Glc
# assay_name: glycan array binding signal (z-score within array); higher = stronger binding
# condition_details: glycan notation: IUPAC condensed, linker removed
Many of the other results were omitted from the sample, so the strongest signals are more common in it than they were.
property_name: glycan array binding signal (z-score)
API doc: respond with a numeric literal and nothing else, no unit.

INSERT INTO measurements (binder, property_name, assay_value) VALUES
  ('DCAL1 (Homo sapiens), Q8IZS7 (protein) MVSNFFHVIQVFEKSATLISKTEHIGFVIYSWRKSTTHLGSRRKFAISIYLSEVSLQKYDCPFSGTSFVVFSLFLICAMAGDVVYADIKTVRTSPLELAFPLQRSVSFNFSTVHKSCPAKDWKVHKGKCYWIAETKKSWNKSQNDCAINNSYLMVIQDITAMVRFNI', 'glycan array binding signal (z-score)', -0.25);

Next up:
### Prompt Answer with reported glycan array binding signal (z-score) of EUL D1A second (Oryza sativa) (protein) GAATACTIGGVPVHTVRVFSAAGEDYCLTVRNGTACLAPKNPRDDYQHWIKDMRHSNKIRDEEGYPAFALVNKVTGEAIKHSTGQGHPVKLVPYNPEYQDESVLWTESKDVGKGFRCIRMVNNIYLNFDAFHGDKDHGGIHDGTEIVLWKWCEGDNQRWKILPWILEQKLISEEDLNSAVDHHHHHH
### Response 2.08
